Test: recombinant UMI read abundance after kanamycin selection (control-corrected) (log10(CPM+1)); higher = more efficient recombination; extreme values may be limits of the assay; sequences stand for … in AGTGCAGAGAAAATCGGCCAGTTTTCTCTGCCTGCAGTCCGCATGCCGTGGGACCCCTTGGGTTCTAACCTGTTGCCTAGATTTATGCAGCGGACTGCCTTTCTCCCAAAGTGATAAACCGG…AGGTTGGTTTCACT; site = the 11-nt donor
The threshold is inclusive: recombinant UMI read abundance (log10) of exactly 1 counts as class 1; values below receive class 0.

See these solved cases before continuing.
Ordered Residues	Assigned Class
CAGACATCATGGACCGGTTTTCCCGGTAATCCGTATTTGCT (site CTGACATCTAG)	class 1
GTGAAAACATGGACCGGTTTTCCCGGTAATCCGTATTTGCT (site GTGAAAACTAG)	class 1
ACAGCTTCATGGACCGGTTTTCCCGGTAATCCGTATTTGCA (site ACAGCTTCTTG)	class 1
TCTTTCTCATGGACCGGTTTTCCCGGTAATCCGTATTTGCT (site TCTTTCTCTAG)	class 0
GTCTGATCATGGACCGGTTTTCCCGGTAATCCGTATTTGAA (site GTCTGATCTTT)	class 1

Hello, I need to know if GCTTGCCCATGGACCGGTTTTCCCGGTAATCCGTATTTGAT (site GCTTGTCCTAT) has measured recombinant UMI read abundance (log10) not below 1. Thanks!
class 0

Likewise for TACAGTACATGGACCGGTTTTCCCGGTAATCCGTATTTGGT (site TACAGTACTAC) ?
class 0

Likewise for ATGCACGCATGGACCGGTTTTCCCGGTAATCCGTATTTGGG (site AAGCACGCTCC) ?
class 0

Likewise for GCAGAGACATGGACCGGTTTTCCCGGTAATCCGTATTTGCG (site ACAGAGACTCG) ?
class 1

Likewise for TTGTTTGCATGGACCGGTTTTCCCGGTAATCCGTATTTGAG (site TTGTTTGCTCT) ?
class 0

Likewise for CACGCATCATGGACCGGTTTTCCCGGTAATCCGTATTTGAT (site CACGCATCTAT) ?
class 1

Likewise for GTACGTACATGGACCGGTTTTCCCGGTAATCCGTATTTGAC (site GTACGTACTGT) ?
class 1

Likewise for TAGATAGCATGGACCGGTTTTCCCGGTAATCCGTATTTGAA (site TAGTTAGCTTT) ?
class 0

Likewise for GCTCCTGCATGGACCGGTTTTCCCGGTAATCCGTATTTGCC (site GCTTCTGCTGG) ?
class 0

Likewise for GGCAACCCATGGACCGGTTTTCCCGGTAATCCGTATTTGTT (site GGCAACCCTAA) ?
class 0

Likewise for TATTGACCATGGACCGGTTTTCCCGGTAATCCGTATTTGCG (site TATTGACCTCG) ?
class 0

Likewise for CAGGCAGCATGGACCGGTTTTCCCGGTAATCCGTATTTGCT (site CAGGCAGCTAG) ?
class 1

Likewise for GATACCACATGGACCGGTTTTCCCGGTAATCCGTATTTGCC (site GATACCACTGG) ?
class 1

Likewise for TTAGCTGCATGGACCGGTTTTCCCGGTAATCCGTATTTGTC (site TTAGCTGCTGA) ?
class 1

---

recombinant UMI read abundance (log10) values for the sequences below.
Test: recombinant UMI read abundance after kanamycin selection (control-corrected) (log10(CPM+1)); higher = more efficient recombination; extreme values may be limits of the assay; sequences stand for … in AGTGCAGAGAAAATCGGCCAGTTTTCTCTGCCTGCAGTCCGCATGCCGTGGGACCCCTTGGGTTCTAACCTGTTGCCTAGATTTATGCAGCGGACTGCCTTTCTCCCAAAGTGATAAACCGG…AGGTTGGTTTCACT; site = the 11-nt donor

Answered cases to consult:
Ordered Residues	Quantity Name	Measured Result
CAAAAGCCATGGACCGGTTTTCCCGGTAATCCGTATTTGTC (site CAAAAGCCTGA)	recombinant UMI read abundance (log10)	0
GCTACCTCATGGACCGGTTTTCCCGGTAATCCGTATTTGGC (site GCTACCTCTGC)	recombinant UMI read abundance (log10)	2.47

If you can, please state the reported recombinant UMI read abundance (log10) value of CCAACTACATGGACCGGTTTTCCCGGTAATCCGTATTTGGC (site CCAACTACTGC) .
0

Likewise for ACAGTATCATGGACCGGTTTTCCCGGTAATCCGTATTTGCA (site TCAGTATCTCG) ?
0.00474

Likewise for GATAAACCATGGACCGGTTTTCCCGGTAATCCGTATTTGGT (site GATAAACCTAC) ?
0

---

Assay: recombinant UMI read abundance after kanamycin selection (control-corrected) (log10(CPM+1)); higher = more efficient recombination; extreme values may be limits of the assay; sequences stand for … in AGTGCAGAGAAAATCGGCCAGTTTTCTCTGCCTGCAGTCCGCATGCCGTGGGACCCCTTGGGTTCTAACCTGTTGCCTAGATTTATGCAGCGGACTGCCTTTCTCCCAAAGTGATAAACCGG…AGGTTGGTTTCACT; site = the 11-nt donor
The threshold is inclusive: recombinant UMI read abundance (log10) of exactly 0.006 counts as criterion met; values below receive criterion not met.

See these solved cases before continuing.
Ordered Residues	Assigned Class
TACTTGACATGGACCGGTTTTCCCGGTAATCCGTATTTGCG (site TACTTGACTTG)	criterion not met
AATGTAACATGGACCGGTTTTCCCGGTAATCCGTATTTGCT (site AATGTAGCTAG)	criterion met
TCCACTGCATGGACCGGTTTTCCCGGTAATCCGTATTTGCG (site TCCACAGCTCG)	criterion not met
CAAGCGCCATGGACCGGTTTTCCCGGTAATCCGTATTTGTC (site CAAGCGCCTTA)	criterion met

Hello, I need to know if GCTGGCCCATGGACCGGTTTTCCCGGTAATCCGTATTTGAT (site GCTGGCCCTAT) has measured recombinant UMI read abundance (log10) not below 0.006. Thanks!
criterion not met

Likewise for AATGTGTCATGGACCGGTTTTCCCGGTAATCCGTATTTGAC (site AATCTGTCTGT) ?
criterion not met

Likewise for GTCAGCCCATGGACCGGTTTTCCCGGTAATCCGTATTTGAC (site GTCAGCCCTGT) ?
criterion met

Likewise for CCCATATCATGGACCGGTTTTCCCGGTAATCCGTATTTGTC (site CCCATAGCTGA) ?
criterion not met

Likewise for GAGAATGCATGGACCGGTTTTCCCGGTAATCCGTATTTGCT (site GAGAATGCTAG) ?
criterion met

Likewise for TATTTGCCATGGACCGGTTTTCCCGGTAATCCGTATTTGTG (site TATTTGACTCA) ?
criterion met

Likewise for GGAGCGACATGGACCGGTTTTCCCGGTAATCCGTATTTGGA (site GGAGCGACTTC) ?
criterion met

Likewise for ATAGTGGCATGGACCGGTTTTCCCGGTAATCCGTATTTGGC (site ATAGTGGCTGC) ?
criterion met

Likewise for TTCTATACATGGACCGGTTTTCCCGGTAATCCGTATTTGAC (site TTCTATACTGT) ?
criterion met

Likewise for TTCGCGGCATGGACCGGTTTTCCCGGTAATCCGTATTTGCT (site TTTGCGGCTAG) ?
criterion met

Likewise for TGCTAGGCATGGACCGGTTTTCCCGGTAATCCGTATTTGGA (site TGCTAGGCTGC) ?
criterion not met

Likewise for AGGAAGACATGGACCGGTTTTCCCGGTAATCCGTATTTGCG (site AGGAAGACTAG) ?
criterion met

Likewise for AGGTCAACATGGACCGGTTTTCCCGGTAATCCGTATTTGAT (site AGGTCAACTAT) ?
criterion met

---

Experiment: recombinant barcode read abundance after kanamycin selection (control-corrected) (log10(CPM+1)); higher = more efficient recombination; sequences stand for … in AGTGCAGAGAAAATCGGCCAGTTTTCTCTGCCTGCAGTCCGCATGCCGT…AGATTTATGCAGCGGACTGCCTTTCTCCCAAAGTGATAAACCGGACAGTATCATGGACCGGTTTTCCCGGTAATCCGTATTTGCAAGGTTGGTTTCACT; site = the 11-nt target
recombinant barcode read abundance (log10) values for the sequences below.
// keep it numeric: no unit symbol after the value

Answered cases to consult:
Ordered Residues	Measured Result
AGGCAGACTTGGGTTCTAACCTGTTGCCA (site AGGCAGACTTG)	0.699
TACTGGGCTTGGGTTCTAACCTGTTGCGG (site TACTGGGCTCC)	2.2
CCAAAGACTTGGGTTCTAACCTGTTGCTT (site CCAAAGACTAA)	0.653

If you can, please state the reported recombinant barcode read abundance (log10) value of GACTTCCCTTGGGTTCTAACCTGTTGCAT (site GACTTGCCTAT) .
0.0893

Likewise for GCCTATGCTTGGGTTCTAACCTGTTGCCT (site GTCTATGCTAG) ?
0.0718
